Provide the reported GI50 of each item.
- System: 786-0
- measurement.protocol: NCI tumour cell line growth inhibition, 48 h
The source made the active and inactive calls. Rule as the data show it: active = GI50 up to about 1.1 µM and inactive = higher.

Log: 786-0, compound CSc1nsc(-c2ccccc2)[s+]1.[O-][Cl+3]([O-])([O-])[O-] , GI50 = > 100 µM (inactive)

Log: 786-0, compound Oc1ccc(/C=C/c2cc(O)cc3c2C(c2cc(O)cc(O)c2)C(c2ccc(O)c(O)c2)O3)cc1 (stereo not given) , GI50 = 41.8 µM (inactive)

Log: 786-0, compound O=C(O)C1CC=CCC1C(=O)Nc1cccc(O)c1 (stereo not given) , GI50 = > 100 µM (inactive)

Log: 786-0, compound O=C(O)CNC(=O)C(CSC(=O)OCC1c2ccccc2-c2ccccc21)NC(=O)CCC(NC(=O)OCC1c2ccccc2-c2ccccc21)C(=O)O (stereo not given) , GI50 = 3.05 µM (inactive)

Log: 786-0, compound O=C(Cn1c(C(=O)/C=C/c2ccc(Cl)cc2)nc2ccccc21)c1ccc(Cl)cc1 , GI50 = 20.6 µM (inactive)

----------
Provide the reported GI50 of each item.
- System: NCI-H226
- measurement.protocol: NCI tumour cell line growth inhibition, 48 h
Calls of active or inactive are those of the source. No stated cut-off is given here; in the data, active = GI50 up to about 1.1 µM and inactive = higher.

Form field GI50, entry CCOC(=O)CC(=O)Nc1cccc2sc3ncccc3c(=O)c12 : 27.9 µM (inactive)

Form field GI50, entry COC(=O)CC[N+]1=CCC(c2ccccc2)(c2ccccc2)O1 : > 100 µM (inactive)

Form field GI50, entry Cc1nc(N)c(N2CCN(CN)CC2)c(O)n1 : > 100 µM (inactive)

Form field GI50, entry CCCCCCCSCC(O)COC(c1ccccc1)(c1ccccc1)c1ccccc1 (centres undefined) : 18.1 µM (inactive)

----------
- Tested on: LOX IMVI
- measurement.protocol: NCI tumour cell line growth inhibition, 48 h
Calls of active or inactive are those of the source. Rule as the data show it: active = GI50 up to about 1.1 µM and inactive = higher.
Mark one answer only. Choices: active, inactive

Test call for this compound, please: CN(Cc1cnc2nc(N)nc(N)c2n1)c1ccc(C(=O)NC(CCC(=O)O)C(=O)O)cc1C(F)(F)F (stereo unspecified)
active

Test call for this compound, please: COC(=O)C(Cc1cc(OC)c(OC)c(OC)c1)C(=O)OC
inactive

Test call for this compound, please: CC1Cc2c(cc(N)nc2Br)NC1=O (stereo unspecified)
inactive

Test call for this compound, please: COc1ccc(C[C@H]2COC(=O)[C@@H]2Cc2ccccc2)cc1OC
inactive

Test call for this compound, please: COC(=O)C1(Cc2ccccc2)Cc2c(C)ccc(C)c2C1=O (stereo unspecified)
inactive

Test call for this compound, please: O=[N+]([O-])c1ccc2sc(/C=N/c3ccc(O)cc3)cc2c1
inactive

Test call for this compound, please: COc1ccc(C2=NN(C(=O)c3ccccc3)C(O)(c3cc(F)c(Cl)cc3Cl)C2)cc1OC (stereo unspecified)
inactive

Test call for this compound, please: COC1OC2=CCC3C(=O)NC(=O)C3C2[C@H](OCc2ccccc2)C1OCc1ccccc1 (stereo partly specified)
inactive

Test call for this compound, please: CC1=C(O)C(=O)c2ccccc2C1=O
inactive

Test call for this compound, please: O=C1Nc2c(Cl)cc(Cl)cc2/C1=N/N=C/c1ccccc1O
inactive

Test call for this compound, please: C=C1C(=O)C23C(O)C1CCC2C12CO[C@]3(O)[C@@H](O)C1C(C)(C)CCC2O (stereo partly specified)
inactive
